Reported SPOT peptide array binding signal intensity values for the following binders.
Tgt: ScBzz1-D2
Assay procedure: SPOT peptide array binding signal intensity (averaged, normalized) (arbitrary units (background-subtracted, floor 0; scale differs between SH3 domains)); higher = stronger binding of the SH3 domain to the peptide
The answer should be written as a number, with no unit following it.

Known SPOT peptide array binding signal intensity results, listed for orientation:
| Binder | Obs value |
| --- | --- |
| KKAPPPVVKPKPRNF | 60 |
| RRLRDKYKLPIVDAD | 23 |
| GERSRPLVISILSSA | 619 |
| FYNRTAFQLPGDARV | 36 |
| FPPKRKPLLRPQRSD | 50 |
| RLPAPPPPPRRGPAP | 47.5 |
| PLRRTVMSLPGNHDI | 5.75 |
| VNFRRIPTGPDSPPT | 8.5 |
| KTKQQKPAIPQKKSF | 19.5 |
| RRGPAPPPPPRASRP | 68.5 |

Request the reported SPOT peptide array binding signal intensity associated with "DHPKGPPPPPPPDEK" 45

Request the reported SPOT peptide array binding signal intensity associated with "KKEKKPPKIPKKVYT" 9.5

Request the reported SPOT peptide array binding signal intensity associated with "PLQSKIPMLPSRRTM" 27

Request the reported SPOT peptide array binding signal intensity associated with "FTLPPPPPPPGLDEL" 0.5

Request the reported SPOT peptide array binding signal intensity associated with "PELAPKREAPKPPAN" 10
